B1: CPEB3 Ribozyme (parent)
chain: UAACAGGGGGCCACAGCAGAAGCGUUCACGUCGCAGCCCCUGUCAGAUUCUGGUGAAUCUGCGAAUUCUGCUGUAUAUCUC

# Variants of: B1
# TEST_PROTOCOL: self-cleavage, relative activity (ratio to wild type); higher = more cleavage; in vitro, sequencing
MEASUREMENT_LABEL: self-cleavage
Form field (numeric): enter value without unit.

[
  {
    "POLYMER_SEQUENCE": "UAACAGGGGGCCACAGCAUAGGCGUUCACGUCGCAGCCCCUGUCAGAUUCUGGUGAAUCUGCGAAUUCUGCUGUAUAUCUC",
    "self-cleavage": 0.2
  }
]

Task item: Quote self-cleavage reported for "UAACAGGGGGCCACAGCAGAAGCGUUCACGUCGCAGCCCCCGUCUGAUUCUGGUGAAUCUGCGAAUUCUGCUGUAUAUCUC" please.
Reply: 0.68

Task item: Quote self-cleavage reported for "UAACAGGUGGCCACAGCAGAAGCGUUCACGUCGCAGCCCCUGUCAGAUUCUGGUGAAUCUGCGAUUUCUGCUGUAUAUCUC" please.
Reply: 0.43

Task item: Quote self-cleavage reported for "UAACAGGGGGACACAGCAGAAGCGUACACGUCGCAGCCCCUGUCAGAUUCUGGUGAAUCUGCGAAUUCUGCUGUAUAUCUC" please.
Reply: 0.3
